Tested on: SUP-B15
Assay: Antiproliferative activity against human SUP-B15 cells after 72 hrs by CellTiter-Glo luminescent cell viability assay
Type: functional, cell-based
Details: SUP-B15, 72 h
quantity_kind: EC50 (µM)

[[record]]
query_smiles = "COC(=O)[C@]1(C)CCC[C@]2(C)c3cc(OC(C)=O)c(C(C)C)cc3C(=O)C[C@@H]12"
val = 21.7

[[record]]
query_smiles = "COC(=O)[C@]1(C)CCC[C@]2(C)c3cc(OC(C)=O)c(C(C)C)cc3CC[C@@H]12"
val = 20.2


---

Target: GABA-A receptor; alpha-1/beta-2/gamma-2 (Homo sapiens, UniProt P14867+P18507+P47870)
Sequence (P14867 whole entry): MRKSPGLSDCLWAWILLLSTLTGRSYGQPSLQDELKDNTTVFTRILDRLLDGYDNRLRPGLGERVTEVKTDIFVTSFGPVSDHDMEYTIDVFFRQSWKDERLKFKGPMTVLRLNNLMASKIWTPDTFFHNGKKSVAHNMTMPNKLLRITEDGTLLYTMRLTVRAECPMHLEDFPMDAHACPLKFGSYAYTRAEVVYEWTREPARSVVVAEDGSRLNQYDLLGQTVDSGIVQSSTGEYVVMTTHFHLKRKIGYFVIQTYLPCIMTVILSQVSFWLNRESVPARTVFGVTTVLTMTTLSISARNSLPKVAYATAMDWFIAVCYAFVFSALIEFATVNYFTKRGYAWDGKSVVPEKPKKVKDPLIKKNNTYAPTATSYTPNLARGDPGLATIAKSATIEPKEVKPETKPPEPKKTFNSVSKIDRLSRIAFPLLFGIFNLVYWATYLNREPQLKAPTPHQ
Sequence (P47870 whole entry): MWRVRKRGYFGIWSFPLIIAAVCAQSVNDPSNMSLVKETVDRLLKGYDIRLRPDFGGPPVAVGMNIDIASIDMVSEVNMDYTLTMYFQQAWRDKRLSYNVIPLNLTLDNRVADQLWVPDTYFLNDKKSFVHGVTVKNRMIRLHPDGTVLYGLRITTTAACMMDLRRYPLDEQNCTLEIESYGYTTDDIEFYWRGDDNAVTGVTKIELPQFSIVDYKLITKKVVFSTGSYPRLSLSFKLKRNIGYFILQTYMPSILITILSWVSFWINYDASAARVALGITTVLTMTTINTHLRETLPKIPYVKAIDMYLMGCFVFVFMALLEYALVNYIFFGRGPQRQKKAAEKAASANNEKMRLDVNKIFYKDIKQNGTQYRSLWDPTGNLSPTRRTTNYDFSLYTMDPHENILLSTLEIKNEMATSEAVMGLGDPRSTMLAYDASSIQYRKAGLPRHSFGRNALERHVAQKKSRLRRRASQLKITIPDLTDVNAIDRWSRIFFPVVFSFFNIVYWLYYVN
Sequence (P18507 whole entry): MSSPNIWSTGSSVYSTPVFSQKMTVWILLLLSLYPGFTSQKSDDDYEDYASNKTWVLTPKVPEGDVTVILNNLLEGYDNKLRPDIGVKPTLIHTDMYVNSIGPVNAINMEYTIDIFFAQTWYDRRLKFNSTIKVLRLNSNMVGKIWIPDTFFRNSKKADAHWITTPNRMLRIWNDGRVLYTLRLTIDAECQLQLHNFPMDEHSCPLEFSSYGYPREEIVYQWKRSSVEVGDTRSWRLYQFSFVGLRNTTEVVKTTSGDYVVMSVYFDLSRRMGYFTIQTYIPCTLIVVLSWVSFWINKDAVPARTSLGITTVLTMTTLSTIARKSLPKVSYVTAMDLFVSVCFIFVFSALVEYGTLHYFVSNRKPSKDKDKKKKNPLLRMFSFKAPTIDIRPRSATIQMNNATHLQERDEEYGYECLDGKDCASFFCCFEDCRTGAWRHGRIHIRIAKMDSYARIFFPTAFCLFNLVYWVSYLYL
Assay: Modulation of recombinant wild type GABAA receptor alpha1beta2gamma2S (unknown origin) expressed in Xenopus laevis oocytes assessed as increase in GABA-evoked chloride current at -70 mV holding potential by two-microelectrode voltage clamp assay
quantity_kind: EC50 (µM)

[[record]]
compound = "CC(C)C1=CC2=CC[C@H]3[C@](C)(C(=O)O)CCC[C@]3(C)C2CC1 (stereo partly specified)"
measured_target = "GABA-A receptor; alpha-1/beta-2/gamma-2 (Homo sapiens, UniProt P14867+P18507+P47870)"
val = 8.7


The reported numbers originate from ChEMBL document CHEMBL4316610.
